Target: T1, human recombinant HER4 Extracellular Domain (HER4 ECD) (human, UniProt Q15303 26-651)
T1 sequence: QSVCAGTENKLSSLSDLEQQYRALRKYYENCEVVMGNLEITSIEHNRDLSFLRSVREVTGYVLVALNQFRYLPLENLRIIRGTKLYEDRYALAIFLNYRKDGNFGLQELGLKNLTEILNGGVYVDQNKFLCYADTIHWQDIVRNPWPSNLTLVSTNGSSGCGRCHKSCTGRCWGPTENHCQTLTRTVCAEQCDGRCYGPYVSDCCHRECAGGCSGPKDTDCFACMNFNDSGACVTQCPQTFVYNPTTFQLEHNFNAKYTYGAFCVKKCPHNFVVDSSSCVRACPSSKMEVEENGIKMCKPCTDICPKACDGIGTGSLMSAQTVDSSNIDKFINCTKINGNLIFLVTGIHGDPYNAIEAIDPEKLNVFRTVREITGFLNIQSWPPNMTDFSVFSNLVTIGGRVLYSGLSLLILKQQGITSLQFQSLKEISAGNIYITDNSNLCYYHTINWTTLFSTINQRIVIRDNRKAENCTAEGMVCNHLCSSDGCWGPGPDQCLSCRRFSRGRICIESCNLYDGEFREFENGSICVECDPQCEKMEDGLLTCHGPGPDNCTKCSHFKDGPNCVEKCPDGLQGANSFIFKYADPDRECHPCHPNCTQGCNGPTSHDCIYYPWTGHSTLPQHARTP
Experiment: ELISA, antigen coated, hybridoma supernatant
RECORDED_METRIC: OD 405 nm (OD)
Give just the numeric value; OD need not be written.

# OD 405 nm lookup, item anti-HER3 antibody M-08-11 (antibody, V domains shown, mouse monoclonal antibody from hybridoma, tested as hybridoma supernatant or as antibody; also called M-011) VH: QAYLQQSGAELMRPGASVRMSCQASGYTFTSYTIHWLKQTPRQGLEWIGAIYPRNGDFSYNQKFKDKASLTVDTSSSTAYMHLSSLTSEDSAVYFCARTINYGDWFAYWGQGTLVTVSA VL: DIQMIQSPASLFVSEGETVIITCRASENIYSNLAWYHQKKGKSPQVLVYAAIKLADGVPLRFSGSGSGTQFSLKINSLQSEDFGSYYCQHFWGPPYTFGSGTNLEIK
0.024
